Recorded WC ELISA (fold over background) for the following binders
target: T1, human cMet expressed on 3T3 cells (human, UniProt P08581 25-1390); assay: whole cell phage ELISA, 3T3 human cMet vs 3T3
T1 construct: whole, on cells; cells fixed with glutaraldehyde; also called cell surface-expressed human cMet; 3T3 cells that over-express human cMet
T1 sequence (P08581 25-1390): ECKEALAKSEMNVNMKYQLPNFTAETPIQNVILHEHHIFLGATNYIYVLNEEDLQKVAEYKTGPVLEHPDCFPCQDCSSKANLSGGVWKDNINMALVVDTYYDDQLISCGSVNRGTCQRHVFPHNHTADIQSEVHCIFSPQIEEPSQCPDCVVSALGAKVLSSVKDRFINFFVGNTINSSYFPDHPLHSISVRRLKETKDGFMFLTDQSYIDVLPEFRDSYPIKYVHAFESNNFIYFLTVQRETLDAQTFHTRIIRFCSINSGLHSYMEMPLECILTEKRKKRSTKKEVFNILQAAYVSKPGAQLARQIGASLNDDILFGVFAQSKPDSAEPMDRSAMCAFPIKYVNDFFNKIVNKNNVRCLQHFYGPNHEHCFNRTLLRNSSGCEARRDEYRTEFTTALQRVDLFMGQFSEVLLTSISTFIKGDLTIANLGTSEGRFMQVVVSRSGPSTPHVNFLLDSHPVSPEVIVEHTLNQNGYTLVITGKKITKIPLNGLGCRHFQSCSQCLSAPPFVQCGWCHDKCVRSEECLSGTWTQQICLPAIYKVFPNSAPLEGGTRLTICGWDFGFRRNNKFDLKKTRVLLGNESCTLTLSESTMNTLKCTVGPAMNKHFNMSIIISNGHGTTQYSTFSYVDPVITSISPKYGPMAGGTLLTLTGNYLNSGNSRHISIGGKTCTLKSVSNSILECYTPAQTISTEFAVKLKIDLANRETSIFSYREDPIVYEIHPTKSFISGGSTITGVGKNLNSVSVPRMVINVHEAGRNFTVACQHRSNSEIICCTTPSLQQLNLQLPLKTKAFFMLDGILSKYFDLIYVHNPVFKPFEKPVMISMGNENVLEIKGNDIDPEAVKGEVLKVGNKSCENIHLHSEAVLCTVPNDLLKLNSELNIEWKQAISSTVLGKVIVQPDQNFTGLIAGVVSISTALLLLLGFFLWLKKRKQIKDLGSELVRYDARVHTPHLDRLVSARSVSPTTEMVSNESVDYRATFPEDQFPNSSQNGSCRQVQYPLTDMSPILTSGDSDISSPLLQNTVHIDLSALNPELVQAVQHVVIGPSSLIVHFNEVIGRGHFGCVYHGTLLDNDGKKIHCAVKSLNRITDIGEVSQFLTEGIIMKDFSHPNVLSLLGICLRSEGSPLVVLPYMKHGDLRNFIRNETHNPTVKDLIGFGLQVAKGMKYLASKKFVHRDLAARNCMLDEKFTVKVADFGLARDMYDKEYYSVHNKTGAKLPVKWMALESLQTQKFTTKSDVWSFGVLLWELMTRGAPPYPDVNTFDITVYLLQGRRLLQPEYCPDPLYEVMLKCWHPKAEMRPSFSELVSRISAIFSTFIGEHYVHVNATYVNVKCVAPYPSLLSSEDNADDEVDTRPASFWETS
Your answer is read as fold, so omit the unit and give the number.

Exam item: Find the recorded WC ELISA (fold over background) belonging to AQWNQWDEFMWFLNPPPIGLMW [151-B08 peptide-displaying phage (SEQ ID NO: 480)] and report it.
Marked response: 1.23

Moving on to another binder below.
Exam item: Find the recorded WC ELISA (fold over background) belonging to GDLLGCGYQEKGGEYKCRFNDP [334-F05 peptide-displaying phage (SEQ ID NO: 395)] and report it.
Marked response: 1.4
